- System: Proto-oncogene tyrosine-protein kinase receptor Ret (Homo sapiens), P07949 [V804M]
- Sequence (P07949 whole entry V804M): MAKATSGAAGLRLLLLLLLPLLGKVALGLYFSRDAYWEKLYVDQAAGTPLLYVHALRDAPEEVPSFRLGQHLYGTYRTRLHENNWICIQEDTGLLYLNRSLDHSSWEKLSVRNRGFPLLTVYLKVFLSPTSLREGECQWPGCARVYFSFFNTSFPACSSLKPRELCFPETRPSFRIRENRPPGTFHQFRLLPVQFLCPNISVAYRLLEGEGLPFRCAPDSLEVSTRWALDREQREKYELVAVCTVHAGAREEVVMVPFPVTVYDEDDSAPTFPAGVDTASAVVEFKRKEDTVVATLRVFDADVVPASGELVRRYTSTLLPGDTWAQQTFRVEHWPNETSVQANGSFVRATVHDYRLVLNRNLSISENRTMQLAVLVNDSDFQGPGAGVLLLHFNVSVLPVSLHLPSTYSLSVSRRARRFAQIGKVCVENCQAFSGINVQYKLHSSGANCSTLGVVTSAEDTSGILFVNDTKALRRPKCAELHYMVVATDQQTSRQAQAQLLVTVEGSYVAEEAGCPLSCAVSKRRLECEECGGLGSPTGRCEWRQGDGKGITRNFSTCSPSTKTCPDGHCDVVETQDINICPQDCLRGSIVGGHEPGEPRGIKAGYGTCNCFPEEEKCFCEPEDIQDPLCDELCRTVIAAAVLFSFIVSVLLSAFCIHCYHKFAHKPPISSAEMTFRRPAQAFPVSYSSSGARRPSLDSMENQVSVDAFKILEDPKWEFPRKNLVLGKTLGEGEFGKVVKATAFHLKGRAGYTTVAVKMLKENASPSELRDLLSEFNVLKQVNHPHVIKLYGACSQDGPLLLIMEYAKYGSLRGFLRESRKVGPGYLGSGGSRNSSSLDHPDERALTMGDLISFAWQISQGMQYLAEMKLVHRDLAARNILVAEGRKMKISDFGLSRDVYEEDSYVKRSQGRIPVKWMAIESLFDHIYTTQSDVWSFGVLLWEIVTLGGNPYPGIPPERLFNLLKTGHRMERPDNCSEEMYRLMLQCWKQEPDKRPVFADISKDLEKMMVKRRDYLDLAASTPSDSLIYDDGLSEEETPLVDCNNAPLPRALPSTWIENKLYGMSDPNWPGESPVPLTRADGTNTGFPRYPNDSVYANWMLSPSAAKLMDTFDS
- condition description: BaF3
measure name: GI50 (µM)
Number only, in µM; omit the unit.

Below: 3 compounds and their reported GI50.
Nc1ncnc2c1c(-c1cc(C3CC3)on1)nn2C1CCCCC1 = 2
CC(C)n1nc(-c2cc(C3CCCCC3)on2)c2c(N)ncnc21 = 4.73
CC(C)(O)Cn1nc(-c2cc(C3CC3)on2)c2c(N)ncnc21 = 6.75

Note: attention shifts to another entry.
### Prompt Give the measured GI50 of CC(C)n1nc(-c2cc(-c3ccccn3)on2)c2c(N)ncnc21 .
### Response 0.7
